Consider the following molecules; for each one, report its Relative potency (cimetidine = 1).
target: gastric histamine H2 receptors (Rattus norvegicus); construct: the gastric secretion is measured by perfusion of a physiological solution at a constant speed in the stomach of the animal; from tissue; host or cells: stomach of the living rat (in vivo, intravenous histamine infusion); experiment: antisecretory activity: antagonism of histamine-induced gastric acid hypersecretion in rat (Ghosh and Schild); type: in vivo; conditions: gastric H2, from ID50, rat i.v.
Sequence (P25102 whole entry, the tested form may be a part): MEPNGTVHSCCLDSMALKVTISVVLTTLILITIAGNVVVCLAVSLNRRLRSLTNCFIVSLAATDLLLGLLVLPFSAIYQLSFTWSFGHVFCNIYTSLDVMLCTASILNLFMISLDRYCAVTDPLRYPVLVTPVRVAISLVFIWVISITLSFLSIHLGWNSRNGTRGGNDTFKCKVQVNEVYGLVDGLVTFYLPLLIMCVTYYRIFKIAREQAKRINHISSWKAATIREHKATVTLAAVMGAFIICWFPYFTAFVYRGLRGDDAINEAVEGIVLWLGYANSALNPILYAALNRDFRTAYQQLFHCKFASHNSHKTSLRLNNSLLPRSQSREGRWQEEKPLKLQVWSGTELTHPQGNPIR
API note: the answer field is a bare number with no unit suffix.

Task: Please give the measured Relative potency (cimetidine = 1) for this molecule: CNC(=C[N+](=O)[O-])NCCSCc1ccc(CN(C)C)o1 [Ranitidine, reference compound]
Result: 3.80

Task: Please give the measured Relative potency (cimetidine = 1) for this molecule: CCCCS(=O)(=O)Nc1cccc(C(=O)NCCSCc2ccc(CN(C)C)o2)c1
Result: 1.94

Task: Please give the measured Relative potency (cimetidine = 1) for this molecule: CN(C)Cc1ccc(CSCCNC(=O)c2ccc(S(N)(=O)=O)cc2)o1 [Compound A, reference compound]
Result: 0.42

Task: Please give the measured Relative potency (cimetidine = 1) for this molecule: CN(C)Cc1ccc(CSCCNC(=O)c2cccc(NS(C)(=O)=O)c2)o1
Result: 0.97

Task: Please give the measured Relative potency (cimetidine = 1) for this molecule: CN(C)Cc1ccc(CSCCNC(=O)c2cccc(NS(=O)(=O)c3cccnc3)c2)o1
Result: 0.52

Task: Please give the measured Relative potency (cimetidine = 1) for this molecule: CN(C)Cc1ccc(CSCCNC(=O)c2cccc(NS(=O)(=O)c3cccs3)c2)o1
Result: 1.02

Task: Please give the measured Relative potency (cimetidine = 1) for this molecule: CN(C)Cc1ccc(CSCCNC(=O)c2cccc(NC(=O)c3ccc[n+]([O-])c3)c2)o1
Result: 2.88

Task: Please give the measured Relative potency (cimetidine = 1) for this molecule: CN(C)Cc1ccc(CSCCNC(=O)c2cccc(NC(=O)c3cccs3)c2)o1
Result: 0.82

Task: Please give the measured Relative potency (cimetidine = 1) for this molecule: CN(C)Cc1ccc(CSCCNC(=O)c2cccc(NC(=O)c3cccnc3)c2)o1.O=C(O)C(=O)O.O=C(O)C(=O)O
Result: 0.82

###

Target: cardiac histamine H2 receptors (Cavia porcellus)
Construct: induced by histamine on the isolated right atrium of the guinea pig; from tissue; host or cells: isolated right atrium of the guinea pig
Sequence (P47747 whole entry): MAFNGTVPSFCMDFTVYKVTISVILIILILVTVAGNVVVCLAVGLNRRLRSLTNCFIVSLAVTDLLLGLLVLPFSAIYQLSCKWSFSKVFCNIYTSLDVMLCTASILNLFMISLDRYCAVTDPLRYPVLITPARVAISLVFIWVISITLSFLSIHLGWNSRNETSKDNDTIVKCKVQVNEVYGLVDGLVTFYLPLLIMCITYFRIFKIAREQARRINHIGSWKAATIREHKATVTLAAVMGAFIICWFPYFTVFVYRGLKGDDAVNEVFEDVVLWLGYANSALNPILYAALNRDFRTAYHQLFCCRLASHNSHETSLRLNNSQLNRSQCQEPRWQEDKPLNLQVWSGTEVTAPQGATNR
Test: inhibition of the increase in frequency induced by histamine on the isolated right atrium of the guinea pig
Type: cell-based
Details: cardiac H2, from IC50, guinea pig right atrium
Text: Such an IC50 represents the index of cardiac H2 blocking action.
measurement.type: Relative potency (cimetidine = 1)
API note: the answer field is a bare number with no unit suffix.

Task: Please give the measured Relative potency (cimetidine = 1) for this molecule: CN(C)Cc1ccc(CSCCNC(=O)c2ccc(S(N)(=O)=O)cc2)o1 [Compound A, reference compound]
Result: 1.3

Task: Please give the measured Relative potency (cimetidine = 1) for this molecule: CN(C)Cc1ccc(CSCCNC(=O)c2cccc(NC(=O)c3cccs3)c2)o1
Result: 0.06

Task: Please give the measured Relative potency (cimetidine = 1) for this molecule: CN(C)Cc1ccc(CSCCNC(=O)c2cccc(NC(=O)c3ccc[n+]([O-])c3)c2)o1
Result: 0.08

Task: Please give the measured Relative potency (cimetidine = 1) for this molecule: CN(C)Cc1ccc(CSCCNC(=O)c2cccc(NS(C)(=O)=O)c2)o1
Result: 0.2

Task: Please give the measured Relative potency (cimetidine = 1) for this molecule: CNC(=C[N+](=O)[O-])NCCSCc1ccc(CN(C)C)o1 [Ranitidine, reference compound]
Result: 5
